Listing of entries alongside the reported protein stability index.
B1: FANCE (parent)
chain: AQVLMLGQILELPWKEETFLVLQS

- Variants of: B1
- assay.protocol: protein stability index of a GFP-peptide fusion (GPS, HEK-293T) (PSI 1-6); higher = more stable;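 also: lentivirally expressed fusions sorted by FACS into six bins by GFP to DsRed ratio, PSI derived from sequencing read proportions per bin multiplied by bin number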
- run.conditions: c terminus: a fixed tail appended
Give the figure only, with no unit attached.

Past entries and their recorded results:
1. L12R 3.1
2. Q8R 2.63
3. S24F 2.67
4. L22M 2.5
5. L12S 2.69
6. L4P 2.18

Entry under review: `F19R` . Reported protein stability index? 2.1

Please do the same for `G7P` as well. 2.51

Consider next the variant `F19M` in the same way. 2.68
